Each entry below carries its recorded IC50.
# Tested Target: NET (Homo sapiens)
# Test: hNET neurotransmitter uptake assay (3H-NE)
# Assay type: cell-based
# Parameters: expressed in transfected cells; host or cells: HEK-293
# Study Conditions: norepinephrine reuptake inhibition, HEK-293 hNET cells, 3H-NE (no asterisk); read-out: NET pIC50 (converted)

{"columns": ["Molecule", "Tested Target", "Assay Value"],
 "data": [
  ["OC[C@@H](Oc1ccc(Cl)cc1Cl)[C@@H]1CCNC1 (stereo in doubt)", "NET (Homo sapiens)", "≤ 100 nM"],
  ["Fc1cccc(O[C@H](C2CCOCC2)[C@@H]2CCNC2)c1Cl", "NET (Homo sapiens)", "≤ 10 nM"],
  ["Clc1cc(Cl)cc(O[C@H](C2CCOCC2)[C@@H]2CCNC2)c1", "NET (Homo sapiens)", "≤ 100 nM"],
  ["Clc1cccc(O[C@H](C2CCOCC2)[C@@H]2CCNC2)c1Cl", "NET (Homo sapiens)", "≤ 10 nM"],
  ["COCC(Oc1cccc(Cl)c1Cl)C1CCNC1 (stereo not shown)", "NET (Homo sapiens)", "≤ 10 nM"]
]}

Task: Data request, read-out IC50, for `Clc1cccc(O[C@H](C2CCOCC2)[C@H]2CCNC2)c1Cl`
Output: ≤ 10 nM

Task: Data request, read-out IC50, for `Clc1ccc(O[C@@H](C2CCOCC2)[C@H]2CCNC2)c(Cl)c1`
Output: ≤ 10 nM

Task: Data request, read-out IC50, for `FC(F)(F)c1c(Cl)cccc1O[C@H](C1CCOCC1)[C@@H]1CCNC1`
Output: ≤ 10 nM

Task: Data request, read-out IC50, for `COC[C@@H](Oc1cccc(Cl)c1C)[C@H]1CCNC1`
Output: ≤ 10 nM

Task: Data request, read-out IC50, for `Clc1cccc(O[C@@H](C2CCOCC2)[C@@H]2CCNC2)c1Cl`
Output: ≤ 10 nM

Task: Data request, read-out IC50, for `Clc1ccccc1O[C@H](C1CCOCC1)[C@H]1CCNC1`
Output: ≤ 100 nM

Task: Data request, read-out IC50, for COCC(Oc1ccc(Cl)cc1C)C1CCNC1 (stereo not shown)
Output: ≤ 10 nM

Task: Data request, read-out IC50, for `Clc1ccccc1O[C@@H](C1CCOCC1)[C@@H]1CCNC1`
Output: ≤ 10 nM

Task: Data request, read-out IC50, for `Fc1cccc(O[C@H](C2CCOCC2)[C@H]2CCNC2)c1Cl`
Output: ≤ 10 nM

Task: Data request, read-out IC50, for `COC[C@@H](Oc1cccc(Cl)c1Cl)[C@H]1CCNC1`
Output: ≤ 10 nM

Task: Data request, read-out IC50, for COCC(Oc1cccc(Cl)c1C(F)(F)F)C1CCNC1 (stereo not shown)
Output: ≤ 10 nM

Task: Data request, read-out IC50, for `CCOC[C@@H](Oc1cccc(Cl)c1Cl)[C@H]1CCNC1`
Output: ≤ 10 nM

Task: Data request, read-out IC50, for `Fc1cccc(O[C@@H](C2CCOCC2)[C@H]2CCNC2)c1Cl`
Output: ≤ 10 nM

Task: Data request, read-out IC50, for `Clc1ccccc1O[C@@H](C1CCOCC1)[C@H]1CCNC1`
Output: ≤ 10 nM

###

# Tested Target: SERT (Homo sapiens)
# Test: fluorescence-based serotonin uptake assay (Tsuruda et al. 2010)
# Format: cell-based
# Study Conditions: serotonin reuptake inhibition, fluorescence-based assay (data indicated by an asterisk); read-out: SERT pIC50 (converted)
# Sequence (P31645 whole entry, species assumed): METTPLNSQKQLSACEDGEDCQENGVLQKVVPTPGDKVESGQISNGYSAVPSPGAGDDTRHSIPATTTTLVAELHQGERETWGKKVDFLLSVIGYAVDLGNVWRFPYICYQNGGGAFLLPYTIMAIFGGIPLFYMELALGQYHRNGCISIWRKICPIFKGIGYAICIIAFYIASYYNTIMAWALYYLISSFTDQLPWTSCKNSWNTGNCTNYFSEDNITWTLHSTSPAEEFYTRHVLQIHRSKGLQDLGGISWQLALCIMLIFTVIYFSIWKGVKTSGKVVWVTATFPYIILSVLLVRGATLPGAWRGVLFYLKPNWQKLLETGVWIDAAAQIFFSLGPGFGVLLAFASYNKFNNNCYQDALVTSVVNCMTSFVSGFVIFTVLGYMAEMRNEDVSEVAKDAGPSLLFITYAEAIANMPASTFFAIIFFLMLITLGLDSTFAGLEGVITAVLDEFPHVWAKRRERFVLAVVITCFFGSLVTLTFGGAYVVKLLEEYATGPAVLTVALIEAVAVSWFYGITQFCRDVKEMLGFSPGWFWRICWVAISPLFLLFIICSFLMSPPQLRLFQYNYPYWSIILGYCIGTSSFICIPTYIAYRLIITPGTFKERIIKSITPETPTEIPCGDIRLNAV
Quantity Measured: IC50

Before answering, review these 2 worked examples.
{"columns": ["Compound", "Tested Target", "IC50"],
 "data": [
  ["CC(C)OC[C@H](Oc1cccc(Cl)c1Cl)[C@@H]1CCNC1 [Example 9-6]", "SERT (Homo sapiens)", "≤ 100 nM"],
  ["CCOC[C@H](Oc1cccc(C(F)(F)F)c1)[C@H]1CCNC1 [Example 7-2]", "SERT (Homo sapiens)", "≤ 100 nM"]
]}

Then this compound:
Task: Lookup: IC50 / SERT (Homo sapiens) / CC(C)SC[C@@H](Oc1cccc(F)c1Cl)[C@H]1CCNC1 [Example 19-4]
Output: ≤ 10 nM

###

# Tested Target: NET (Homo sapiens, UniProt P23975)
# Sequence (P23975 whole entry): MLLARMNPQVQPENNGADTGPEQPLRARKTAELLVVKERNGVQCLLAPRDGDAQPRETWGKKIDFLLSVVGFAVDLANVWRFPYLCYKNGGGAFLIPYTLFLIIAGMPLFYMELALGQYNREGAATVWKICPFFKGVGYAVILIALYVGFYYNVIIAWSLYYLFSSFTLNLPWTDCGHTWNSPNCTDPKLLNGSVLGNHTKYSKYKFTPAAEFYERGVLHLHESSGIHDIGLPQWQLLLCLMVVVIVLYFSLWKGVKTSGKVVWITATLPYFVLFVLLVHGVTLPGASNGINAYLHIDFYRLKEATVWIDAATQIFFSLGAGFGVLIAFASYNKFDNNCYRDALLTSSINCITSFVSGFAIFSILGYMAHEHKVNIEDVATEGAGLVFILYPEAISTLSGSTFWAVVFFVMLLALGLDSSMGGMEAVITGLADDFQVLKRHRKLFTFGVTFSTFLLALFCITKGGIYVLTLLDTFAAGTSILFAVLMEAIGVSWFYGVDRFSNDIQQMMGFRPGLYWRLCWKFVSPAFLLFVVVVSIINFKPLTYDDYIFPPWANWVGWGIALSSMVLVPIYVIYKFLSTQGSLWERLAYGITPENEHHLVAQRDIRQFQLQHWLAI
# Test: hNET membrane radioligand binding assay (3H-nisoxetine)
# Set-up: expressed in transfected cells; host or cells: HEK-293
# Study Conditions: hNET membranes (HEK-293), 1.0 nM 3H-nisoxetine; read-out: NET pKi (converted)
Each entry below carries its recorded Ki.

Before answering, review these 4 worked examples.
{"columns": ["Compound", "Ki"],
 "data": [
  ["Clc1cccc(Cl)c1O[C@@H](C1CCOCC1)[C@@H]1CCNC1 [Example 13-27]", "≤ 10 nM"],
  ["Fc1cccc(O[C@H](C2CCOCC2)[C@@H]2CCNC2)c1Cl [Example 13-16]", "≤ 10 nM"],
  ["COCC(Oc1cccc(Cl)c1C(F)(F)F)C1CCNC1 (stereo not drawn) [Example 4-18]", "≤ 10 nM"],
  ["COCCC(Oc1ccc(Cl)cc1C)C1CCNC1 (single isomer, unassigned) [5 (2nd peak)]", "≤ 10 nM"]
]}

Task: Lookup: Ki / NET (Homo sapiens, UniProt P23975) / COCC(Oc1ccc(Cl)cc1)C1CCNC1 (stereo not drawn) [Example 4-4]
Output: ≤ 100 nM

###

Each entry below carries its recorded Ki.
# Tested Target: SERT (Homo sapiens)
# Test: hSERT membrane radioligand binding assay (3H-citalopram)
# Design: expressed in transfected cells; host or cells: HEK-293
# Study Conditions: hSERT membranes (HEK-293), 1.0 nM 3H-citalopram; read-out: SERT pKi (converted)
# Sequence (P31645 whole entry): as the sequence (P31645 whole entry, species assumed) above

Before answering, review these 2 worked examples.
{"columns": ["Compound", "Ki"],
 "data": [
  ["COCC(Oc1ccc(Cl)cc1)C1CCNC1 (stereo not shown)", "≤ 10 nM"],
  ["FC(F)(F)c1c(Cl)cccc1O[C@H](C1CCOCC1)[C@@H]1CCNC1", "≤ 10 nM"]
]}

Task: Data request, read-out Ki, for `Fc1cccc(O[C@@H](C2CCOCC2)[C@@H]2CCNC2)c1`
Output: ≤ 100 nM

Task: Data request, read-out Ki, for `Clc1ccccc1O[C@@H](C1CCOCC1)[C@H]1CCNC1`
Output: ≤ 100 nM

###

# Tested Target: NET (Homo sapiens)
# Test: hNET neurotransmitter uptake assay (3H-NE)
# Type: cell-based
# Set-up: expressed in transfected cells; host or cells: HEK-293
# Study Conditions: norepinephrine reuptake inhibition, HEK-293 hNET cells, 3H-NE (no asterisk); read-out: NET pIC50 (converted)
Quantity Measured: IC50

Task: Data request, read-out IC50, for `COC[C@@H](Oc1cccc(Cl)c1C(F)(F)F)[C@H]1CCNC1`
Output: ≤ 10 nM

Task: Data request, read-out IC50, for `COC[C@H](Oc1ccc(Cl)cc1C)[C@H]1CCNC1`
Output: ≤ 10 nM

Task: Data request, read-out IC50, for `COC[C@@H](Oc1ccc(Cl)cc1Cl)[C@H]1CCNC1`
Output: ≤ 100 nM

Task: Data request, read-out IC50, for `COC[C@H](Oc1cccc(Cl)c1C)[C@H]1CCNC1`
Output: ≤ 10 nM

Task: Data request, read-out IC50, for `COC[C@@H](Oc1cccc(F)c1Cl)[C@H]1CCNC1`
Output: ≤ 100 nM

Task: Data request, read-out IC50, for `Clc1cc(Cl)cc(O[C@@H](C2CCOCC2)[C@@H]2CCNC2)c1`
Output: ≤ 10 nM

Task: Data request, read-out IC50, for `Fc1cccc(O[C@@H](C2CCOCC2)[C@@H]2CCNC2)c1Cl`
Output: ≤ 10 nM

Task: Data request, read-out IC50, for `Clc1ccc(O[C@H](C2CCOCC2)[C@@H]2CCNC2)cc1`
Output: ≤ 10 nM

###

# Tested Target: NET (Homo sapiens, UniProt P23975)
# Test: fluorescence-based norepinephrine uptake assay (Tsuruda et al. 2010)
# Format: cell-based
# Study Conditions: norepinephrine reuptake inhibition, fluorescence-based assay (data indicated by an asterisk); read-out: NET pIC50 (converted)
Quantity Measured: IC50

{"columns": ["Compound", "IC50"],
 "data": [
  ["CCOC[C@H](Oc1ccc(C(F)(F)F)cc1Cl)[C@H]1CCNC1", "≤ 10 nM"],
  ["CC(C)OC[C@@H](Oc1c(Cl)cccc1Cl)[C@H]1CCNC1", "≤ 10 nM"],
  ["CC(C)OC[C@H](Oc1c(Cl)cccc1Cl)[C@H]1CCNC1", "≤ 10 nM"]
]}

Task: Data request, read-out IC50, for `CCOC[C@H](Oc1ccc(Cl)cc1C)[C@H]1CCNC1`
Output: ≤ 10 nM

Task: Data request, read-out IC50, for `CC(C)OC[C@@H](Oc1cccc(C(F)(F)F)c1)[C@H]1CCNC1`
Output: ≤ 100 nM

Task: Data request, read-out IC50, for `CC(C)OC[C@@H](Oc1cccc(Cl)c1Cl)[C@H]1CCNC1`
Output: ≤ 10 nM

Task: Data request, read-out IC50, for `CCOC[C@H](Oc1ccc(Cl)cc1C(F)(F)F)[C@H]1CCNC1`
Output: ≤ 10 nM

Entry source: patent US8455665B2
